- System: MCF7
- ASSAY REMARKS: Cytotoxicity against human MCF7 cells after 48 hrs by MTT assay
- Assay type: functional, cell-based
- DETAILS: MCF7, 48 h
OBSERVED PROPERTY: IC50

Prompt: Entry COc1ccc2c(c1)[nH]c1c(C(=O)c3c[nH]c4ccccc34)nccc12 : reported IC50 = ?
Completion: 5.3 µM

Prompt: Entry COc1ccc2c(C3=NCCc4c3[nH]c3ccccc43)ccnc2c1 : reported IC50 = ?
Completion: > 40 µM

Prompt: Entry COc1ccc2c(c1)[nH]c1c(C(C)=O)nccc12 : reported IC50 = ?
Completion: > 40 µM

Prompt: Entry O=C1NCCc2c1[nH]c1ccccc21 : reported IC50 = ?
Completion: > 40 µM

Prompt: Entry COc1ccc2c3c([nH]c2c1)-c1nc2ccccc2c(=O)n1CC3 : reported IC50 = ?
Completion: > 40 µM

Prompt: Entry COc1ccc2c(c1)[nH]c1c(-c3ccnc4ccccc34)nc(O)cc12 : reported IC50 = ?
Completion: 14.4 µM

Prompt: Entry COc1ccc2c(C(=O)c3nccc4c3[nH]c3ccccc34)c(O)[nH]c2c1 : reported IC50 = ?
Completion: 13.8 µM

Prompt: Entry COC(=O)c1nccc2c1[nH]c1cc(OC)ccc12 : reported IC50 = ?
Completion: > 40 µM

Prompt: Entry COc1ccc2c(=O)n3c(nc2c1)-c1[nH]c2ccccc2c1CC3 : reported IC50 = ?
Completion: > 40 µM

----------
- Tested on: A549
- ASSAY REMARKS: Cytotoxicity against human A549 cells after 48 hrs by MTT assay
- Assay type: functional, cell-based
- DETAILS: A549, 48 h
Listing of recorded IC50 by entry.

Prompt: Entry COc1ccc2c(c1)[nH]c1c(C(=O)c3c(O)[nH]c4ccccc34)nccc12 [TRIGONOSTEMINE C] : reported IC50 = ?
Completion: 18.5 µM

Prompt: Entry COc1ccc2c(C(=O)c3nccc4c3[nH]c3ccccc34)c(O)[nH]c2c1 [TRIGONOSTEMINE D] : reported IC50 = ?
Completion: > 40 µM

Prompt: Entry COc1ccc2c(c1)[nH]c1c(C(C)=O)nccc12 [ARENARINE C] : reported IC50 = ?
Completion: > 40 µM

Prompt: Entry COc1ccc2c(c1)[nH]c1c(C(=O)c3c[nH]c4ccccc34)nccc12 [TRIGONOSTEMINE A] : reported IC50 = ?
Completion: 23.9 µM

Prompt: Entry COc1ccc2c(=O)n3c(nc2c1)-c1[nH]c2ccccc2c1CC3 : reported IC50 = ?
Completion: > 40 µM

Next:
Prompt: Entry COc1ccc2c(c1)[nH]c1c(-c3ccnc4ccccc34)nc(O)cc12 [TRIGONOSTEMINE E] : reported IC50 = ?
Completion: 24.3 µM

Prompt: Entry COC(=O)c1nccc2c1[nH]c1cc(OC)ccc12 [HARMIC ACID METHYL ESTER] : reported IC50 = ?
Completion: > 40 µM

Prompt: Entry COc1ccc2c(-c3nc(O)cc4c3[nH]c3ccccc34)ccnc2c1 [TRIGONOSTEMINE F] : reported IC50 = ?
Completion: > 40 µM

Prompt: Entry COc1ccc2c3c([nH]c2c1)-c1nc2ccccc2c(=O)n1CC3 : reported IC50 = ?
Completion: > 40 µM

----------
- Tested on: A549
- ASSAY REMARKS: Cytotoxicity against human A549 cells after 48 hrs by MTT assay
- Assay type: functional, cell-based
- DETAILS: A549, 48 h
OBSERVED PROPERTY: IC50 (µM)
Note: unit µM is implicit; provide only the numeric part.

Prompt: Entry COc1ccc2c(C(=O)c3nccc4c3[nH]c3cc(OC)ccc34)c[nH]c2c1 : reported IC50 = ?
Completion: 8.67

Next:
Prompt: Entry COc1ccc2c(c1)[nH]c1c(-c3ccnc4ccccc34)nccc12 : reported IC50 = ?
Completion: 23.1

----------
Listing of recorded IC50 by entry.
- Test system: MCF7
- ASSAY REMARKS: Cytotoxicity against human MCF7 cells after 48 hrs by MTT assay
- Format: functional, cell-based
- DETAILS: MCF7, 48 h
Note: unit µM is implicit; provide only the numeric part.

Prompt: Entry COc1ccc2c(c1)[nH]c1c(C(=O)c3c(O)[nH]c4ccccc34)nccc12 : reported IC50 = ?
Completion: 16.1

Please examine the following record next.
Prompt: Entry COc1ccc2c(C(=O)c3nccc4c3[nH]c3cc(OC)ccc34)c[nH]c2c1 : reported IC50 = ?
Completion: 2.98

----------
- System: A549
- ASSAY REMARKS: Cytotoxicity against human A549 cells after 48 hrs by MTT assay
- Type: functional, cell-based
- DETAILS: A549, 48 h
Listing of recorded IC50 by entry.

Answered examples (2):
Prompt: Entry COc1ccc2c(-c3nccc4c3[nH]c3ccccc34)ccnc2c1 : reported IC50 = ?
Completion: > 40 µM

Prompt: Entry COc1ccc2c(C3=NCCc4c3[nH]c3ccccc43)ccnc2c1 : reported IC50 = ?
Completion: > 40 µM

Please examine the following record next.
Prompt: Entry O=C1NCCc2c1[nH]c1ccccc21 : reported IC50 = ?
Completion: > 40 µM

----------
Listing of recorded IC50 by entry.
- Test system: MCF7
- ASSAY REMARKS: Cytotoxicity against human MCF7 cells after 48 hrs by MTT assay
- Assay type: functional, cell-based
- DETAILS: MCF7, 48 h

Answered examples (2):
Prompt: Entry COc1ccc2c(-c3nc(O)cc4c3[nH]c3ccccc34)ccnc2c1 : reported IC50 = ?
Completion: > 40 µM

Prompt: Entry COc1ccc2c(-c3nccc4c3[nH]c3ccccc34)ccnc2c1 : reported IC50 = ?
Completion: > 40 µM

Next:
Prompt: Entry COc1ccc2c(c1)[nH]c1c(-c3ccnc4ccccc34)nccc12 : reported IC50 = ?
Completion: > 40 µM

// data source = ChEMBL document CHEMBL1955794
